RUN DESCRIPTION: AUC (0 to 24 hrs) in Sprague-Dawley rat at 3 mg/kg, po by LC-MS/MS analysis
Assay type: ADME, organism-based
Design: dose 3 mg/kg, time < 24 hr, route oral
CONDITION SUMMARY: in vivo
MEASURED QUANTITY: AUC(0-t) at 24 h
Answer format reminder: number followed by unit.

IN: If you can, please state the reported AUC(0-t) at 24 h value of Cc1nc(-c2ccc(C(F)(F)F)cc2)sc1COc1ccc2c(c1)OC[C@H]2CC(=O)O .
OUT: 95600 ng·h/mL

###

Below, each of the compounds is paired with its reported EC50 value.
SYSTEM UNDER TEST: Free fatty acid receptor 1 (Homo sapiens)
RUN DESCRIPTION: Agonist activity at human FFA1 receptor expressed in CHO cells by Fluo 4-AM dye based FLIPR assay
// return numeric value only (unit: µM, not printed)

Below, each entry is followed by its recorded EC50 result.
compound=Cc1nc(-c2ccccc2)sc1COc1ccc(S(=O)(=O)CC(=O)O)cc1 measured_quantity=EC50 measured_result=0.37
compound=Cc1cccc(-c2nc(C)c(COc3ccc(OCC(=O)O)c(F)c3)s2)c1 measured_quantity=EC50 measured_result=0.247
compound="Cc1ccc(-c2nc(C)c(COc3ccc4c(c3)OCC4CC(=O)O)s2)cc1 (stereo not given)" measured_quantity=EC50 measured_result=0.094

Now look at this entry.
IN: // lookup EC50 for [2H]C([2H])(Cc1ccc(OCc2sc(-c3ccc(C(F)(F)F)cc3)nc2C)cc1)C(=O)O
OUT: 0.325

###

SYSTEM UNDER TEST: Free fatty acid receptor 1 (Homo sapiens, UniProt O14842)
Sequence (O14842 whole entry): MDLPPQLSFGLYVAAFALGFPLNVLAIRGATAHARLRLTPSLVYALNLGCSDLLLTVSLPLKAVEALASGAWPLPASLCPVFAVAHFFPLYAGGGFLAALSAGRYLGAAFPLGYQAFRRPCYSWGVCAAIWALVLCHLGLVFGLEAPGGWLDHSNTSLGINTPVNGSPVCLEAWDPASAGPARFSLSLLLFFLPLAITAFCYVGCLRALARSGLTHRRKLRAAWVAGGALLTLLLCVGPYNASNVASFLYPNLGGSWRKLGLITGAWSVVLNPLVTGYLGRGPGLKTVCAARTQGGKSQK
RUN DESCRIPTION: Agonist activity at human FFA1 receptor expressed in CHO cells by Fluo 4-AM dye based FLIPR assay
Documented pEC50 across a set of compounds
Here pEC50 is given on a logarithmic scale as minus log10 of the concentration in mol/L.

Solved entries (count: 5):
compound="Cc1nc(-c2ccc(C(F)(F)F)cc2)sc1COc1ccc2c(c1)OCC2CC(=O)O (stereo unspecified)" measured_quantity=pEC50 measured_result=6.95
compound="Cc1nc(-c2ccccc2)sc1COc1ccc2c(c1)OCC2CC(=O)O (stereo unspecified)" measured_quantity=pEC50 measured_result=6.99
compound=Cc1nc(-c2ccc(C(F)(F)F)cc2)sc1COc1ccc2c(c1)OC[C@H]2CC(=O)O measured_quantity=pEC50 measured_result=7.17
compound=Cc1ccc(-c2nc(C)c(COc3ccc(OCC(=O)O)c(F)c3)s2)cc1 measured_quantity=pEC50 measured_result=6.81
compound=Cc1nc(-c2ccc(F)cc2)sc1COc1ccc(OCC(=O)O)c(F)c1 measured_quantity=pEC50 measured_result=6.95

IN: Endpoint output: pEC50 of Cc1nc(-c2ccccc2)sc1COc1ccc(OCC(=O)O)c(F)c1 . Value?
OUT: 6.43

###

SYSTEM UNDER TEST: Free fatty acid receptor 1 (Homo sapiens)
RUN DESCRIPTION: Agonist activity at human FFA1 receptor expressed in CHO cells assessed as activity percentage at 10 uM by Fluo 4-AM dye based FLIPR assay relative to control
Assay type: cell-based
MEASURED QUANTITY: Activity (%)
Just the number in %, nothing appended.

chemical_smiles=O=C(O)COc1ccc(OCc2nnc(-c3ccccc3)s2)cc1F system_under_test="Free fatty acid receptor 1 (Homo sapiens)" measured_result=19

IN: Consider the molecule O=C(O)COc1ccc(OCc2csc(-c3ccccc3)n2)cc1F and give its measured Activity.
OUT: 23

IN: Looking for the measured Activity of O=C(O)COc1ccc(OCc2ncc(-c3ccccc3)o2)cc1F , can you help?
OUT: 2

IN: # get_value(readout='Activity', item= Cc1cc(OCc2sc(-c3ccccc3)nc2C)ccc1OCC(=O)O )
OUT: 13

IN: Param item = O=C(O)COc1ccc(OCc2ncc(-c3ccccc3)s2)cc1F ; retrieve measured Activity.
OUT: 31

IN: For Cc1cc(OCc2csc(-c3ccccc3)n2)ccc1OCC(=O)O , what is its reported Activity?
OUT: 5

IN: So what's the measured Activity for this one? Cc1sc(-c2ccccc2)nc1CNc1ccc(OCC(=O)O)c(F)c1
OUT: 42

###

SYSTEM UNDER TEST: Peroxisome proliferator-activated receptor delta (Homo sapiens, UniProt Q03181)
RUN DESCRIPTION: Transactivation of GAL4-fused human PPARdelta LBD expressed in HEK293 cells after 18 hrs by luciferase reporter gene assay
MEASURED QUANTITY: EC50 (nM)
// return numeric value only (unit: nM, not printed)

Take a look at these entries with their results.
molecule="Cc1nc(-c2ccc(F)cc2)sc1COc1ccc2c(c1)OCC2CC(=O)O (configuration not stated)" system_under_test="Peroxisome proliferator-activated receptor delta (Homo sapiens, UniProt Q03181)" measured_result=306
molecule=[2H]C([2H])(Cc1ccc(OCc2sc(-c3ccccc3)nc2C)cc1)C(=O)O system_under_test="Peroxisome proliferator-activated receptor delta (Homo sapiens, UniProt Q03181)" measured_result=972
molecule=Cc1nc(-c2ccc(C(F)(F)F)cc2)sc1COc1ccc2c(c1)OC[C@H]2CC(=O)O system_under_test="Peroxisome proliferator-activated receptor delta (Homo sapiens, UniProt Q03181)" measured_result=102
molecule=Cc1ccc(-c2nc(C)c(COc3ccc(OCC(=O)O)c(F)c3)s2)cc1 system_under_test="Peroxisome proliferator-activated receptor delta (Homo sapiens, UniProt Q03181)" measured_result=564
molecule="Cc1nc(-c2ccc(C(F)(F)F)cc2)sc1COc1ccc2c(c1)OCC2CC(=O)O (configuration not stated)" system_under_test="Peroxisome proliferator-activated receptor delta (Homo sapiens, UniProt Q03181)" measured_result=175
molecule=Cc1cc(OCc2sc(-c3ccccc3)nc2C)ccc1OCC(=O)O system_under_test="Peroxisome proliferator-activated receptor delta (Homo sapiens, UniProt Q03181)" measured_result=1650
molecule=Cc1nc(-c2ccc(C(F)(F)F)cc2)sc1COc1ccc(OCC(=O)O)c(F)c1 system_under_test="Peroxisome proliferator-activated receptor delta (Homo sapiens, UniProt Q03181)" measured_result=436
molecule="Cc1ccc(-c2nc(C)c(COc3ccc4c(c3)OCC4CC(=O)O)s2)cc1 (configuration not stated)" system_under_test="Peroxisome proliferator-activated receptor delta (Homo sapiens, UniProt Q03181)" measured_result=218

IN: Which EC50 is reported for this molecule? [2H]C([2H])(Cc1ccc(OCc2sc(-c3ccc(F)cc3)nc2C)cc1)C(=O)O
OUT: 529

IN: If you can, please state the reported EC50 value of Cc1nc(-c2ccccc2)sc1COc1ccc2c(c1)OCC2CC(=O)O (configuration not stated) .
OUT: 863

IN: # get_value(readout='EC50', item= Cc1cccc(-c2nc(C)c(COc3ccc(OCC(=O)O)c(F)c3)s2)c1 )
OUT: 1160

IN: I would be grateful if you could share the reported EC50 for [2H]C([2H])(Cc1ccc(OCc2sc(-c3ccc(C(F)(F)F)cc3)nc2C)cc1)C(=O)O .
OUT: 376

IN: Any idea what its EC50 is? The molecule is Cc1nc(-c2cccc(F)c2)sc1COc1ccc(OCC(=O)O)c(F)c1
OUT: 780

###

SYSTEM UNDER TEST: Free fatty acid receptor 1 (Homo sapiens, UniProt O14842)
RUN DESCRIPTION: Agonist activity at human FFA1 receptor expressed in CHO cells by Fluo 4-AM dye based FLIPR assay
MEASURED QUANTITY: EC50 (nM)
Express your answer in nM, writing the number without its unit.

IN: Reported EC50 for Cc1nc(-c2ccc(F)cc2)sc1COc1ccc2c(c1)OCC2CC(=O)O (stereo not given) : what is it?
OUT: 79

IN: Name the recorded EC50 for Cc1nc(-c2ccc(C(F)(F)F)cc2)sc1COc1ccc(OCC(=O)O)c(F)c1 .
OUT: 149

IN: Endpoint output: EC50 of Cc1nc(-c2ccccc2)oc1COc1ccc(OCC(=O)O)c(F)c1 . Value?
OUT: 1350

###

SYSTEM UNDER TEST: Peroxisome proliferator-activated receptor alpha (Homo sapiens, UniProt Q07869)
Sequence (Q07869 whole entry, the tested form may be a part): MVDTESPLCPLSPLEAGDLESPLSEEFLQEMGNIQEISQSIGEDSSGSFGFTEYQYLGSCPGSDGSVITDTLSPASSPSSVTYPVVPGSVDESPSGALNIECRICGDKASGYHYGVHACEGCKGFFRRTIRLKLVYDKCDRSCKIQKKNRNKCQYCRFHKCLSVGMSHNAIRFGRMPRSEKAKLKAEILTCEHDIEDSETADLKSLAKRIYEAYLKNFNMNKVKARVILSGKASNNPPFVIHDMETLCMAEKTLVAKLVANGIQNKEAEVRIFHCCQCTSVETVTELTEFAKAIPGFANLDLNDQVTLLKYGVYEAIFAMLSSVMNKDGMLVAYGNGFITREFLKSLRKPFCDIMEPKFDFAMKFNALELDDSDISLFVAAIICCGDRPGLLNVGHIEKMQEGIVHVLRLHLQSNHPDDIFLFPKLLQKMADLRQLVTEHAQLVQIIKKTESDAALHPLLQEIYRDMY
RUN DESCRIPTION: Transactivation of GAL4-fused human PPARalpha LBD expressed in HEK293 cells after 18 hrs by luciferase reporter gene assay
MEASURED QUANTITY: EC50

IN: Give its EC50 value. Item: Cc1nc(-c2ccc(C(F)(F)F)cc2)sc1COc1ccc2c(c1)OC[C@H]2CC(=O)O
OUT: > 10 µM

###

SYSTEM UNDER TEST: Peroxisome proliferator-activated receptor delta (Homo sapiens)
Sequence (whole entry): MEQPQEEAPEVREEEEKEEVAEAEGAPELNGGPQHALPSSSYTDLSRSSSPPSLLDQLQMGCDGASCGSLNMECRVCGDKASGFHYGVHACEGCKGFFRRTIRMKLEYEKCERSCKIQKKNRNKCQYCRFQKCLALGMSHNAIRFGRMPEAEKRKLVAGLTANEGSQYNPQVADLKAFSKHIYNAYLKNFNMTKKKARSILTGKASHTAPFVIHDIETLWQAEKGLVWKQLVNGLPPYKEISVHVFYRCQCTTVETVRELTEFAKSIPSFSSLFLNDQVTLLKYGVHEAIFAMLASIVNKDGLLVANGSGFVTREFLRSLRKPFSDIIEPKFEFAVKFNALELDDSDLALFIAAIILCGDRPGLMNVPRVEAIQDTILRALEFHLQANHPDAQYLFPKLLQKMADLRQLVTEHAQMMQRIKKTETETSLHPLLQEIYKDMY
RUN DESCRIPTION: Transactivation of GAL4-fused human PPARdelta LBD expressed in HEK293 cells assessed as activity percentage at 10 uM after 18 hrs by luciferase reporter gene assay relative to control
Assay type: cell-based
In this section we review reported Activity values for a set of molecules.
Number only, in %; omit the unit.

chemical_smiles=Cc1cc(OCc2nnc(-c3ccccc3)s2)ccc1OCC(=O)O measured_result=9
chemical_smiles=Cc1sc(-c2ccccc2)nc1CNc1ccc(OCC(=O)O)c(F)c1 measured_result=12
chemical_smiles=Cc1cc(OCc2csc(-c3ccccc3)n2)ccc1OCC(=O)O measured_result=35
chemical_smiles=Cc1sc(-c2ccccc2)nc1COc1ccc(OCC(=O)O)c(F)c1 measured_result=31
chemical_smiles=O=C(O)COc1ccc(OCc2ncc(-c3ccccc3)o2)cc1F measured_result=8

IN: What value of Activity has been reported for the following molecule? O=C(O)COc1ccc(OCc2csc(-c3ccccc3)n2)cc1F
OUT: 20

IN: # Activity lookup, item O=C(O)COc1ccc(OCc2nc(-c3ccccc3)cs2)cc1F
OUT: 11
